# Test system: HL-60(TB) leukemia
# Test Details: NCI-60 one-dose screen, 48 h
# Measurement Context: 10 µM unless noted
This is part of a sample that, as a whole, favours compounds with a hit. Of some 83,000 tested, about 20% had one in any assay. Calls of active or inactive are those of the source. Rule for the calls: active = growth percent below 10; inactive = the rest.
Possible outcomes: active, inactive

| Compound | Category Label |
| --- | --- |
| Cc1cc2c(C#N)n3c(c2cc1C)C(=O)C(c1ccccc1)Oc1ccccc1-3 (configuration not stated) | inactive |
| S=C=NP1(N=C=S)=NP(N=C=S)(N=C=S)=NP(N=C=S)(N=C=S)=NP(N=C=S)(N=C=S)=N1 (configuration not stated) | inactive |
| CC(=O)O[C@H]1C(=O)[C@@]2(C)[C@H]([C@H](OC(=O)c3ccccc3)[C@]3(O)C[C@H](OC(=O)[C@H](OC(=O)CCC(=O)OC4CCC(S/N=C(N)/N=C(\N)N(C)C)CC4)[C@@H](NC(=O)c4ccccc4)c4ccccc4)C(C)=C1C3(C)C)[C@]1(OC(C)=O)CO[C@@H]1C[C@@H]2O (some centres not stated) | active |
| CC1=C(C(=O)Nc2ccccc2)C(c2ccc3c(c2)OCO3)NC(=S)N1 (configuration not stated) | inactive |
| CC1CCCN(CCCCCOc2ccc3oc4ccc(Cl)cc4c(=O)c3c2)C1 (configuration not stated) | inactive |
| O=C(O)CN1C(=O)CCC1=O | inactive |
| Cc1nc2ccccc2c(/C=C/c2ccccc2)c1C(=O)/C=C/c1ccc(Cl)cc1 | active |
| CSc1ccc(Cl)c(C(=O)Nc2sccc2C(N)=O)c1 | inactive |
| Cc1cc(Nc2nc(N3CCN(C)CC3)nc3ccccc23)n[nH]1 | inactive |
| C=CCCC(=O)N1C=CC(=O)[C@H](O)[C@@H]1/C=C/c1ccccc1 | inactive |
| Cc1ccc(C(=O)C2C(=O)C3CCC2C3)cc1 (configuration not stated) | inactive |
| N#Cc1ncc(Br)c(NC2CCCCCC2)n1 | inactive |
| COc1ccc(S(=O)(=O)Nc2cc(/C=C\c3cc(OC)c(OC)c(OC)c3)ccc2OC)cc1 | active |
| O=[N+]([O-])c1c(O)c(CNCCCO)cc(CNCCCO)c1O | inactive |
| Cc1cc(C2(c3ccc(O)c(C)c3)OS(=O)(=O)c3ccccc32)ccc1O | inactive |
| COc1ccc(/C=N\NC(=O)c2ccncc2)cc1O | inactive |
| O=C(O)C1(Br)CC12c1ccccc1-c1ccccc12 (configuration not stated) | inactive |

Data provenance is PubChem BioAssay (NCI).
